Attribute: Activity
System: Mus musculus
Experiment: Average change in weight is tested in mice at a dose of 2 mg/kg
Type: functional
Set-up: unit not given here
valueType: Activity

COc1cc(OC2CC(OC(C)=O)C(OC3CC(O)C(OC)C(C)O3)C(C)O2)cc2cc3c(c(O)c12)C(=O)C(OC1CC(OC2CC(OC4CC(C)(O)C(OC(=O)C(C)C)C(C)O4)C(O)C(C)O2)C(O)C(C)O1)C(C(OC)C(=O)C(O)C(C)O)C3 (centres undefined) ... 0.7
COC1C(O)CC(OC2C(C)OC(Oc3cc(O)c4c(O)c5c(cc4c3)CC(C(OC)C(O)C(O)C(C)O)C(OC3CC(OC4CC(OC6CC(C)(O)C(OC(=O)C(C)C)C(C)O6)C(O)C(C)O4)C(O)C(C)O3)C5)CC2OC(C)=O)OC1C (centres undefined) ... 5.3
CO/N=C(\C(O)C(C)O)C(OC)C1Cc2cc3cc(OC4CC(OC(C)=O)C(OC5CC(O)C(OC)C(C)O5)C(C)O4)cc(O)c3c(O)c2C(=O)C1OC1CC(OC2CC(OC3CC(C)(O)C(OC(=O)C(C)C)C(C)O3)C(O)C(C)O2)C(O)C(C)O1 (centres undefined) ... 0.3
COC(C(=O)C(O)C(C)O)C1Cc2cc3cc(OC4CC(OC(C)=O)C(OC5CC(O)C(OC)C(C)O5)C(C)O4)c([N+](=O)[O-])c(O)c3c(O)c2C(=O)C1OC1CC(OC2CC(OC3CC(C)(O)C(OC(=O)C(C)C)C(C)O3)C(O)C(C)O2)C(O)C(C)O1 (centres undefined) ... 2.8
C/N=C(\C(O)C(C)O)C(OC)C1Cc2cc3cc(OC4CC(OC(C)=O)C(OC5CC(O)C(OC)C(C)O5)C(C)O4)cc(O)c3c(O)c2C(=O)C1OC1CC(OC2CC(OC3CC(C)(O)C(OC(=O)C(C)C)C(C)O3)C(O)C(C)O2)C(O)C(C)O1 (centres undefined) ... 0.1
COC(C(=O)C(O)C(C)O)C1Cc2cc3cc(OC4CC(OC(C)=O)C(OC5CC(O)C(OC)C(C)O5)C(C)O4)cc(O)c3c(O)c2C(=O)C1OC1CC(OC2CC(OC3CC(C)(O)C(OC(=O)C(C)C)C(C)O3)C(O)C(C)O2)C(O)C(C)O1 (centres undefined) ... 0
COC(/C(=N/O)C(O)C(C)O)C1Cc2cc3cc(OC4CC(OC(C)=O)C(OC5CC(O)C(OC)C(C)O5)C(C)O4)cc(O)c3c(O)c2C(=O)C1OC1CC(OC2CC(OC3CC(C)(O)C(OC(=O)C(C)C)C(C)O3)C(O)C(C)O2)C(O)C(C)O1 (centres undefined) ... 1.3
COC1C(O)CC(OC2C(C)OC(Oc3cc(O)c4c(O)c5c(cc4c3)CC(C(OC)C(O)C(O)C(C)O)C(OC3CC(OC4CC(OC6CC(C)(O)C(OC(=O)C(C)C)C(C)O6)C(O)C(C)O4)C(O)C(C)O3)C5=O)CC2OC(C)=O)OC1C (centres undefined) ... 1.1
COC(C(=O)C(O)C(C)O)C1Cc2cc3cc(OC4CC(OC(C)=O)C(OC5CC(O)C(OC)C(C)O5)C(C)O4)c(Br)c(O)c3c(O)c2C(=O)C1OC1CC(OC2CC(OC3CC(C)(O)C(OC(=O)C(C)C)C(C)O3)C(O)C(C)O2)C(O)C(C)O1 (centres undefined) ... 0.3

The reported measurements were obtained from ChEMBL document CHEMBL1121420.
